Listed here are compounds together with their documented inhibition.
experimental.target: Mannose-6-phosphate isomerase (Homo sapiens)
measurement.description: inhibitors of human PMI, primary screen, biochemical, fluorescence intensity, coupled assay (AID 1209);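 further: plate controls were DMSO vehicle for no effect and wells lacking substrate for full effect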
test.parameters: purified PMI enzyme, at 20 µM, stronger effect = higher value
Hit rate of the full screen: of about 190,000 compounds, about 810 (0.43%) were called active. The full list was thinned out, with actives kept by preference.

[
  {
    "compound": "Cc1cccc(C(=O)CC(=O)c2cc(Cl)ccc2O)c1",
    "unit.symbol": "%",
    "inhibition": 5.2
  },
  {
    "compound": "NS(=O)(=O)c1ccc(CNC(=S)Nc2ccc(F)c(Cl)c2)cc1",
    "unit.symbol": "%",
    "inhibition": 17.2
  },
  {
    "compound": "O=C(NCc1ccncc1)c1ccc(N2CCCC2)c([N+](=O)[O-])c1",
    "unit.symbol": "%",
    "inhibition": 72.1
  },
  {
    "compound": "O=C(NCc1ccccn1)c1ccc(N2CCCC2)c([N+](=O)[O-])c1",
    "unit.symbol": "%",
    "inhibition": -10.4
  },
  {
    "compound": "CN(CC(=O)NC(=O)NCc1ccccc1)Cc1ccc(Cl)c(Cl)c1",
    "unit.symbol": "%",
    "inhibition": 14
  },
  {
    "compound": "CCN1CCc2c(C#N)c(N3CCCCC3)nc(NCc3ccccc3)c2C1",
    "unit.symbol": "%",
    "inhibition": 30.4
  },
  {
    "compound": "N#Cc1c(NCCCO)nc(NCc2ccccc2)c2c1CCN(Cc1ccccc1)C2",
    "unit.symbol": "%",
    "inhibition": 56.3
  },
  {
    "compound": "O=C(CCN1CCC(c2ccccc2)C1)c1ccc2c(c1)OCCO2 (stereo not drawn)",
    "unit.symbol": "%",
    "inhibition": 47.6
  },
  {
    "compound": "Cc1cc2n(n1)SC(Nc1cc(Cl)ccc1Cl)N2 (stereo not drawn)",
    "unit.symbol": "%",
    "inhibition": 19.6
  },
  {
    "compound": "Nc1cc(C(=O)OCC(=O)NCc2ccco2)ccc1Cl",
    "unit.symbol": "%",
    "inhibition": -6.8
  },
  {
    "compound": "Oc1cccc(C=NCc2ccccc2)c1O",
    "unit.symbol": "%",
    "inhibition": 49.6
  },
  {
    "compound": "Cc1ccc(Nc2cc(-n3nc(C)cc3C)ncn2)c(C)c1",
    "unit.symbol": "%",
    "inhibition": -0.1
  },
  {
    "compound": "COc1ccc(/C=N/N(Cc2ccccc2)c2ccccc2)cc1O",
    "unit.symbol": "%",
    "inhibition": 16.7
  },
  {
    "compound": "COc1ccc(C2CN=NC23CCCc2ccccc2C3=O)cc1 (stereo not drawn)",
    "unit.symbol": "%",
    "inhibition": 3.1
  },
  {
    "compound": "O=C1NN=C(c2ccccc2)CC1c1ccc(Cl)cc1Cl (stereo not drawn)",
    "unit.symbol": "%",
    "inhibition": 4.2
  },
  {
    "compound": "COc1cccc(C(=O)NC(C)C(c2cccs2)N2CCN(C)CC2)c1 (stereo not drawn)",
    "unit.symbol": "%",
    "inhibition": 4.2
  },
  {
    "compound": "Clc1ccc(-c2ccc(/C=N/Nc3cc(N4CCOCC4)nc(N4CCOCC4)n3)o2)cc1",
    "unit.symbol": "%",
    "inhibition": 47.2
  },
  {
    "compound": "Oc1cccc(/C=N/Nc2cc(N3CCCC3)nc(N3CCCC3)n2)c1",
    "unit.symbol": "%",
    "inhibition": 41.2
  },
  {
    "compound": "Cc1ccc(Nc2nc(=O)c3cccnc3s2)cc1",
    "unit.symbol": "%",
    "inhibition": 1.7
  },
  {
    "compound": "O=S(=O)(c1ccc(NC(=S)NCc2ccco2)cc1)N1CCCC1",
    "unit.symbol": "%",
    "inhibition": 8.9
  },
  {
    "compound": "Oc1ccc(/C=N\\Nc2cc(N3CCOCC3)nc(N3CCOCC3)n2)c(O)c1",
    "unit.symbol": "%",
    "inhibition": 32.2
  },
  {
    "compound": "Oc1ccc(/C=N/Nc2cc(N3CCOCC3)nc(N3CCOCC3)n2)cc1O",
    "unit.symbol": "%",
    "inhibition": 76.8
  },
  {
    "compound": "Oc1cccc(/C=N/N(Cc2ccccc2)c2ccccc2)c1",
    "unit.symbol": "%",
    "inhibition": 10
  },
  {
    "compound": "CC(=O)Nc1ccc(S(=O)(=O)c2ccc(C)cc2)cc1",
    "unit.symbol": "%",
    "inhibition": 10.7
  },
  {
    "compound": "O=C1c2ccccc2C(=O)N1CN(C(=O)c1ccccc1[N+](=O)[O-])c1ccc(F)cc1",
    "unit.symbol": "%",
    "inhibition": 13.9
  },
  {
    "compound": "CCOc1cc(Cl)c(NC(=O)c2ccco2)cc1OCC",
    "unit.symbol": "%",
    "inhibition": 10.1
  },
  {
    "compound": "Oc1ccc(/C=N/N(Cc2ccccc2)c2ccccc2)c(O)c1O",
    "unit.symbol": "%",
    "inhibition": 76.6
  },
  {
    "compound": "CN(C)c1ccc(/C=C/C=N/Nc2nc(N3CCOCC3)nc(N3CCOCC3)n2)cc1",
    "unit.symbol": "%",
    "inhibition": 7.3
  },
  {
    "compound": "CCOc1ccc(CCNC(=O)CSc2nn(-c3ccc(C)c(Cl)c3)c(=S)s2)cc1OCC",
    "unit.symbol": "%",
    "inhibition": 8.9
  },
  {
    "compound": "O=C(CSc1ccc(-c2ccccn2)nn1)c1ccccc1",
    "unit.symbol": "%",
    "inhibition": -14.4
  },
  {
    "compound": "COc1ccccc1CNC(=O)c1cc2c(s1)CS(=O)(=O)C2",
    "unit.symbol": "%",
    "inhibition": 2.6
  },
  {
    "compound": "C(=C\\c1ccccc1)/C=N/Nc1nc(N2CCOCC2)nc(N2CCOCC2)n1",
    "unit.symbol": "%",
    "inhibition": -1.4
  },
  {
    "compound": "CCN1CCc2c(C#N)c(NCc3ccccc3)nc(N(CC)CC)c2C1",
    "unit.symbol": "%",
    "inhibition": 3
  }
]

Data origin: PubChem BioAssay AID1209
